Sourced from patent US10597674B2

system: HPPD polypeptides (wild-type SEQ ID NO:1 and mutants); conditions: in the presence of Cmpd. 1, 15 μM inhibitor, high substrate concentration; kapp normalized to kapp without inhibitor
Parameter: Residual activity (%)

Molecule	Observed value
14 (protein, mutant HPPD polypeptide) MADLYENPMGLMGFEFIEFASPTPGTLEPIFEIMGFTKVATHRSKNVHLYRQGEINLILNNEPNSIASYFAAEHGPSVCGMAFRVKDSQKAYNRALELGAQPIHIDTGPMELNLPAIKGIGGAPLYLIDRFGEGSSIYDIDFVYLEGVERNPVGAGLKVIDHLTHNVYRGRMVYWANFYEKLFNFREARYFDIKGEYTGLTSKAMSAPDGMIRIPLNEESSKGAGQIEEFLMQFNGEGIQHVAFLTDDLVKTWDALKKIGMRFMTAPPDTYYEMLEGRLPDHGEPVDQLQARGILLDGSSVEGDKRLLLQIFSETLMGPVFFEFIQRKGHDGFGPDSFKVLFESVERDQVRRGVLTAD	44
